These measurements were taken from paper PMC3591448.

Target Entity: firefly luciferase, Photinus pyralis (FLuc) (Photinus pyralis, UniProt P08659)
Sequence (P08659 whole entry): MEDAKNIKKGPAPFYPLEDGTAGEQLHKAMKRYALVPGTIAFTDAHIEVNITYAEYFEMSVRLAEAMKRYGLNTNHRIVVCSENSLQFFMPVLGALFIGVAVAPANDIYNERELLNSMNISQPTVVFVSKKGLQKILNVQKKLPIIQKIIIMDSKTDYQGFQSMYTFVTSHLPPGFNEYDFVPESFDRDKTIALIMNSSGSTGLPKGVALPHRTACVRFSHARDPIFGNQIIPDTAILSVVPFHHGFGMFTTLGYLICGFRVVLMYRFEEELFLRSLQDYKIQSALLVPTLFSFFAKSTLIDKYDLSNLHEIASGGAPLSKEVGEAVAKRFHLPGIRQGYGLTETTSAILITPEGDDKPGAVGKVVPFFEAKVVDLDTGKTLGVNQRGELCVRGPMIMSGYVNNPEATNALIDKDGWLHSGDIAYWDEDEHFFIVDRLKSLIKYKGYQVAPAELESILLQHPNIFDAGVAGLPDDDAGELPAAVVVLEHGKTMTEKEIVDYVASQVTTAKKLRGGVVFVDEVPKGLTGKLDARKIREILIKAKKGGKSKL
Assay Comment: biochemical
Type: biochemical
Reported Conditions: Figure 4b; read-out: FLuc (IC50)
Readout Kind: pIC50
One number for each entry, as −log10 of the molar value.

{"Compound": "CN(c1ccc(NC(=O)Nc2c(Cl)cccc2Cl)cc1)c1ccnc(Nc2cccc(CS(C)(=O)=O)c2)n1 [GW809897X]", "pIC50": 6.25}

Batch of 3 compounds: report pIC50 for each.
1. COC(=O)Nc1nc2cc(Oc3ccc(NC(=O)Nc4ccccc4)cc3)ccc2[nH]1 [GW694590A]
2. CCn1c(-c2nonc2N)nc2cnc(Oc3cccc(NC(=O)c4ccc(N(C)C)cc4)c3)cc21 [GSK248233A]
3. COc1cccc(-c2c[nH]c3c(N/N=C/c4ccncc4)ncnc23)c1 [GW814408X]

1: 4.85; 2: 6.00; 3: 5.24
